TARGET OR TEST SYSTEM: T1, Mcl-1, Q07820
T1 chain: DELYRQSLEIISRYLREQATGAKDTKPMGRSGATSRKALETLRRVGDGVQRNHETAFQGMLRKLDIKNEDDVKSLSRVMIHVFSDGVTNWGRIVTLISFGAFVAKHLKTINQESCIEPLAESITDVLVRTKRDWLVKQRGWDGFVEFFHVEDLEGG
PROCEDURE TEXT: peptide SPOT array, c-Myc-tagged receptor at 1 uM or 100 nM, anti-c-Myc-Cy3
Examples of binders with documented SPOT signal as a fraction of Bim BH3's signal on the same receptor and array follow.
Format: numeric value only, no unit, no commentary.

Recorded SPOT signal as a fraction of Bim BH3's signal on the same receptor and array, per entry:
SHALICISHWILGILDRHLNNFMVAM [PRKDC] = 0.02
RDASKILVDALQKFADDMYSLYGGNA [ATP6AP2] = 0.02
SQGDKRVAFFMRKGADCLSKWVGESE [ATAD2] = 0.06
VILADPDGHEICFVLDEAFRELSKMD [GLOD4] = 0.02

Consider the additional binder presented here.
In plain terms, VLLTLLVAAVDRCQGQDVQEAGSCVQ [COL2A1] has a documented SPOT signal as a fraction of Bim BH3's signal on the same receptor and array of 0.05
